Biological target: human FGFR2b on KATO III cells (human, UniProt P21802)
Sequence (P21802 22-377): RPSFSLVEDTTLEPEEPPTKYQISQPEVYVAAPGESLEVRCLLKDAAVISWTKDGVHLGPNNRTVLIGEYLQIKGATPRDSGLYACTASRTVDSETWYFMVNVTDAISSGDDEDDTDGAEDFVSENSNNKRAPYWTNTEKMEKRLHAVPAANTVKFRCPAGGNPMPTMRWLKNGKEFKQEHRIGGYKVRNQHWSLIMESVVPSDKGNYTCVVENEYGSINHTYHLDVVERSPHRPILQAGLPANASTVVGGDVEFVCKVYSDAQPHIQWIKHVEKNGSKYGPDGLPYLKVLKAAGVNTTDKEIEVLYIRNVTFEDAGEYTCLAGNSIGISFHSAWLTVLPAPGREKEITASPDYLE
Assay: FACS
metric.name: EC50 (mg/L)
Report only the number, with the unit mg/L understood.

Exercise: Consider the binder 1C10 (antibody, V domains shown) VH: QVQLQQSGAELVKPGASVKMSCKASGYTFRYYNMHWVKRTPGQGLEWIGLIYPDNGDTSYNQKFKGKATLTADTSSSTAYMQLSSLTSEDSAVYYCARGGLDYWGQGTSLTVSS VL: DIVMTQSPASLSASVGETVTITCRASGNIHNYLAWYQQKQGKSPQLLVYNAKTLADGVPSRFSGSGSGTQYSLKINSLQPEDFGSYYCQHFWSTPYTFGGGTKLEMK and give its measured EC50.
Solution: 0.152

Exercise: 3F10 (antibody, V domains shown) VH: EVQLQQSGAELVKPGASVKMSCKASGYTFSFYNIHWVRQTPGQGLEWIGLIYPDNGDTSYNQKFKAKATLTADKSSSTAYMQLSSLTSEDSAVYYCARGGFDYWGQGTTLTVSS VL: DVLMTQSPASLSASVGETVTITCGASENIYGALNWYQRKQGKSPQLLIYGATNLADGMSSRFSGSGSGRQYSLKISSLHPDDVATYYCQNVLSTPYTFGGGTKLEIK , same question.
Solution: 0.159

Exercise: Another binder to check: 3E2 (antibody, V domains shown) VH: EIQLQQSGAELVKPGASVKMSCKASGYTFSFYNMHWVKRTPGQGLEWIGLIYPDNGDTSYNQKFKGKATLTADTSSSTAYMQLSSLTSEDSAVYYCARGGLDYWGQGTSLTVSS VL: NIVMTQSQKFMSTSVGDRVSVTCKASQNVGTNVAWYQQKPGQSPKALIYSASYRYTGVPDRFTGSGSGTDFTFTISSVQAEDLAVYYCQQHYSTPYTFGGGTKLEIK
Solution: 0.236

Exercise: What would you report for 3D6 (antibody, V domains shown) VH: QVQLQQSGAELVKPGASVKMSCKASGYTFRYYNMHWVKRTPGQGLEWIGLIYPDNGDTSYNQKFKGKATLTADTSSSTAYMQLSSLTSEDSAVYYCARGGLDYWGQGTSLTVSS VL: DIQMTQSPASLSVSVGETVTITCRASENIYSNLAWYQQKQGKSPQLLVYNAKTLADGVPSRFSGSGSGTQYSLKINSLQPEDFGSYYCQHFWSTPFTFGSGTKLELK ?
Solution: 0.136
